The following molecules are listed with their measured IC50 values.
- TESTED TARGET: Rap guanine nucleotide exchange factor 4 (Mus musculus, UniProt Q9EQZ6)
- Sequence (Q9EQZ6 whole entry): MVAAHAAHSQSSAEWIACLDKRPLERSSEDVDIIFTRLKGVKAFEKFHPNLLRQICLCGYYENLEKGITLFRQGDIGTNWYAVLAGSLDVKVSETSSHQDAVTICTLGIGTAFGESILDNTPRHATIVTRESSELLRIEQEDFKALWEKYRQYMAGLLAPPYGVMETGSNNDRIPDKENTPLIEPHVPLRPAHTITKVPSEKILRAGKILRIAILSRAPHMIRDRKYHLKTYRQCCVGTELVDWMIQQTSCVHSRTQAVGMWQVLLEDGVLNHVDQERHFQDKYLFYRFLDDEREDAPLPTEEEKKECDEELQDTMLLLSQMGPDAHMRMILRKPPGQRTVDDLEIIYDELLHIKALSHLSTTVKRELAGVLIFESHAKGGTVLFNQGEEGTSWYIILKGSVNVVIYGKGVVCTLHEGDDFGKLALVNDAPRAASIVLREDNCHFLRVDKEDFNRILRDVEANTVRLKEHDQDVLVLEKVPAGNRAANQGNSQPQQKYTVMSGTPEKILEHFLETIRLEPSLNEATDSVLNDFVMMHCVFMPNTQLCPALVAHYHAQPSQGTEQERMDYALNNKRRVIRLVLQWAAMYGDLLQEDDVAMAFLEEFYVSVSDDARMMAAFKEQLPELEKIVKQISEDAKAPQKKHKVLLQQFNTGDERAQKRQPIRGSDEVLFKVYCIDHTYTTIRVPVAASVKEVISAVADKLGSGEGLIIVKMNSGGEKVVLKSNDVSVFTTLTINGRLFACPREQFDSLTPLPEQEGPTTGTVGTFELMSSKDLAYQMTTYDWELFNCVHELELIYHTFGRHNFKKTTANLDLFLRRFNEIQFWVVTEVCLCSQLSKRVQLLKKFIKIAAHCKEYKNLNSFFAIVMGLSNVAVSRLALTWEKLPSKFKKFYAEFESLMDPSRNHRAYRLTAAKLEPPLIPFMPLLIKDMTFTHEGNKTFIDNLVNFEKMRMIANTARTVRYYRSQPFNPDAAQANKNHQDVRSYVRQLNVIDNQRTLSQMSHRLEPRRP
- PROTOCOL TEXT: Displacement of 8-NBD-cAMP from mouse recombinant EPAC2 by fluorescence assay
- RUN PARAMETERS: read-out: IC50
READOUT TYPE: IC50 (µM)

[[record]]
chemical_string = "CC(C)(C)c1cc(C(=O)/C(C#N)=N/Nc2cc(F)cc(F)c2)no1"
readout_type = "IC50"
reported_value = 5.3

[[record]]
chemical_string = "CC(C)(C)c1cc(C(=O)/C(C#N)=N/Nc2ccc(F)c(Cl)c2)no1"
readout_type = "IC50"
reported_value = 2.7

[[record]]
chemical_string = "CC(C)(C)c1cc(C(=O)/C(C#N)=N/Nc2cc(Cl)c(Cl)c(Cl)c2)no1"
readout_type = "IC50"
reported_value = 0.9

[[record]]
chemical_string = "CC(C)(C)c1cc(C(=O)/C(C#N)=N/Nc2cccc([N+](=O)[O-])c2)no1"
readout_type = "IC50"
reported_value = 31.3

[[record]]
chemical_string = "CC(C)(C)c1cc(C(=O)/C(C#N)=N/Nc2cc(Cl)cc(C(F)(F)F)c2)no1"
readout_type = "IC50"
reported_value = 1.6

[[record]]
chemical_string = "N#C/C(=N\\Nc1cccc(Cl)c1)C(=O)c1cc(C2CC2)on1"
readout_type = "IC50"
reported_value = 60

[[record]]
chemical_string = "CCOC(=O)c1cccc(N/N=C(\\C#N)C(=O)c2cc(C(C)(C)C)on2)c1"
readout_type = "IC50"
reported_value = 71.4

